assayNotes: Oral bioavailability in rat at 5 mg/kg
Type: ADME, organism-based
conditions: in vivo
In this section, each of the compounds is paired with its reported bioavailability.
State the answer as a number, implicitly in %.

Check out these entries, answers already filled in.
givenSmiles | bioavailability (%)
COC(=O)N[C@H](C(=O)N[C@@H](Cc1ccccc1)C[C@H](O)[C@H](Cc1ccc(-c2cnc3ccccc3c2)cc1)NC(=O)[C@@H](NC(=O)OC)C(C)(C)C)C(C)(C)C | 1
COC(=O)N[C@H](C(=O)N[C@@H](Cc1ccccc1)C[C@H](O)[C@H](Cc1ccc(-c2cncc(F)c2)cc1)NC(=O)[C@@H](NC(=O)OC)C(C)(C)C)C(C)(C)C | 13
COC(=O)N[C@H](C(=O)N[C@@H](Cc1ccccc1)C[C@H](O)[C@H](Cc1ccc(-c2ccccn2)cc1)NC(=O)[C@@H](NC(=O)OC)C(C)(C)C)C(C)(C)C | 7
COC(=O)N[C@H](C(=O)N[C@@H](Cc1ccccc1)C[C@H](O)[C@H](Cc1ccc(-c2ccc(CO)cc2)cc1)NC(=O)[C@@H](NC(=O)OC)C(C)(C)C)C(C)(C)C | 0

Turning now to a further record.
Short answer for COC(=O)N[C@H](C(=O)N[C@@H](Cc1ccccc1)C[C@H](O)[C@H](Cc1ccc(-c2cccc(N)c2)cc1)NC(=O)[C@@H](NC(=O)OC)C(C)(C)C)C(C)(C)C : bioavailability was 1
